# maps each entry to its koff
TESTED_SYSTEM: T1, human FcRn/b2M (human, UniProt P61769 21-119, biotinylated)
T1 construct: bought recombinant biotinylated protein (ACRO FCM-H82W4 or Immunitrack ITF01); also called hFcRn; hFcRn/hb2M
T1 sequence (chain, as listed by the source limits assumed, chain 1 of 2): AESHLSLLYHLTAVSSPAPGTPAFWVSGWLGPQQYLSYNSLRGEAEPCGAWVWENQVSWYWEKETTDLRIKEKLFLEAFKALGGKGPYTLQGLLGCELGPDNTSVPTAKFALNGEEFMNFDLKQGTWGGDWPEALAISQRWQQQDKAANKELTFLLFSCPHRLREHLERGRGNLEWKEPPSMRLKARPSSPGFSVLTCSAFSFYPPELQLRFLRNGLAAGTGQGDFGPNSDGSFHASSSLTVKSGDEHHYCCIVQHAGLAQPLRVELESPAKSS
T1 sequence (P61769 21-119 limits assumed, chain 2 of 2): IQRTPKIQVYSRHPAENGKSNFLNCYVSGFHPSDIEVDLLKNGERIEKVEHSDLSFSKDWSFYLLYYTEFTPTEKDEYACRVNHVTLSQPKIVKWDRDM
EXPERIMENT: SPR pH 6.0;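 further: surface plasmon resonance kinetics at 25 °C, diluted periplasmic extracts injected over immobilized ligand surfaces, 120 s association then 600–3600 s dissociation, running buffer containing 150 mM NaCl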

{"columns": ["BINDER", "koff"],
 "data": [
  ["T0263018B11 T96V (VHH, name in Kabat numbering, FLAG3-His6 tagged) VHH: EVQLVESGGGVVQPGGSLRLSCAASGFTFSSYAMYWVRQAPGKGLEWVSAISSGGGSTDYADSVKGRFTISRDNSKNTLYLQMNSLRPEDTALYYCAADVLYTSLTWYSYWGQGTLVTVSS", "0.00047 s⁻¹"],
  ["T0263018B11 F27L (VHH, name in Kabat numbering, FLAG3-His6 tagged) VHH: EVQLVESGGGVVQPGGSLRLSCAASGLTFSSYAMYWVRQAPGKGLEWVSAISSGGGSTDYADSVKGRFTISRDNSKNTLYLQMNSLRPEDTALYYCAADTLYTSLTWYSYWGQGTLVTVSS", "0.0013 s⁻¹"]
]}
